Reference source: patent US8921307B2

experimental-target: hAPJ (Homo sapiens, UniProt P35414)
Sequence (P35414 1-380): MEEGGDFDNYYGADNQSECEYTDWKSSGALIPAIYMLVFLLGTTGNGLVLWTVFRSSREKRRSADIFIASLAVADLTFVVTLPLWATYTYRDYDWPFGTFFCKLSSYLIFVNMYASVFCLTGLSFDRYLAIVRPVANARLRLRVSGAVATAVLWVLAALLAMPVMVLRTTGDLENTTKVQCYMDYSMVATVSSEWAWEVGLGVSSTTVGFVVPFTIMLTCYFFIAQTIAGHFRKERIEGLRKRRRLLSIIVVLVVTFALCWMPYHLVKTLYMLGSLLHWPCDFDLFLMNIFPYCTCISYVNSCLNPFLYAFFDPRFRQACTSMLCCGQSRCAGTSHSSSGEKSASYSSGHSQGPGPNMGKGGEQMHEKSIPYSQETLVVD
assay-method-text: hAPJ Calcium Flux Assay
Format: cell-based
condition-notes: Chem-5 APJ stable cells, FLIPR calcium flux stimulation; read-out: hAPJ Ca^2+ Flux EC50
measure-name: EC50

INSERT INTO results (molecule, measure_name, measured_value) VALUES
  ('CCCC[C@@H](NC(=O)[C@@H]1CCCN1C(=O)CNC(=O)[C@H](CCCCN)NC(=O)[C@H](Cc1c[nH]cn1)NC(=O)[C@@H](CC)NC(=O)[C@H](CC(C)C)NC(=O)[C@H](CCCNC(=N)N)NC(=O)[C@@H]1CCCN1C(=O)[C@H](CCCNC(=N)N)NC(=O)[C@@H]1CCC(=O)N1)C(=O)N[C@H](C)C(=O)N[C@H](Cc1ccccc1)C(=O)O [Example 44, pE-R-P-R-L-abu-H-K-G-P-nle-a-f-OH]', 'EC50', '3 nM');

###

experimental-target: hAPJ (Homo sapiens)
assay-method-text: hAPJ Calcium Flux Assay
Assay type: cell-based
condition-notes: Chem-5 APJ stable cells, FLIPR calcium flux stimulation; read-out: hAPJ Ca^2+ Flux EC50
Where a SMILES comes first, the peptide text is derived from it. [ ]: non-standard residue; d: D form. pGlu = O=C1CC[C@@H](C(=O)O)N1; dNle = CCCC[C@@H](N)C(=O)O
measure-name: EC50 (nM)

INSERT INTO measurements (molecule, measure_name, unit_symbol, measured_value) VALUES
  ('CCCC[C@@H](NC(=O)[C@@H]1CCCN1C(=O)CNC(=O)[C@H](CCCCN)NC(=O)[C@H](Cc1c[nH]cn1)NC(=O)[C@@H](C)NC(=O)[C@H](CC(C)C)NC(=O)[C@H](CCCNC(=N)N)NC(=O)[C@@H]1CCCN1C(=O)[C@H](CCCNC(=N)N)NC(=O)[C@@H]1CCC(=O)N1)C(=O)N[C@H](CC(C)C)C(=O)N[C@H](Cc1ccccc1)C(=O)O [Example 14, pE-R-P-R-L-a-H-K-G-P-nle-(D-Leu)-f-OH] ([pGlu]RPRL[dA]HKGP[dNle][dL][dF]-OH)', 'EC50', 'nM', 3.2);

###

assay-method-text: Surrogate Activity-Based Plasma Stability Assay
Type: in vitro ADME
condition-notes: rat, Surrogate activity-based Plasma stability t½
Where a SMILES comes first, the peptide text is derived from it. [ ]: non-standard residue; d: D form. pGlu = O=C1CC[C@@H](C(=O)O)N1; dNle = CCCC[C@@H](N)C(=O)O
# key: entry, value: half-life
measure-name: half-life

INSERT INTO results (compound, measured_value) VALUES
  ('CCCC[C@@H](NC(=O)[C@@H]1CCCN1C(=O)CNC(=O)[C@H](CCCCN)NC(=O)[C@H](CC(C)C)NC(=O)[C@@H](C)NC(=O)[C@H](CC(C)C)NC(=O)[C@H](CCCNC(=N)N)NC(=O)[C@@H]1CCCN1C(=O)[C@H](CCCNC(=N)N)NC(=O)[C@@H]1CCC(=O)N1)C(=O)N[C@H](C)C(=O)N[C@H](Cc1ccccc1)C(=O)O [Example 47, pE-R-P-R-L-a-L-K-G-P-nle-a-f-OH] ([pGlu]RPRL[dA]LKGP[dNle][dA][dF]-OH)', '> 16.7 h'),
  ('CCCC[C@@H](NC(=O)[C@@H]1CCCN1C(=O)CNC(=O)[C@H](CCCCN)NC(=O)[C@H](Cc1c[nH]cn1)NC(=O)[C@@H](C)NC(=O)[C@H](CC(C)C)NC(=O)[C@H](CCCNC(=N)N)NC(=O)[C@@H](C)NC(=O)[C@H](CCCNC(=N)N)NC(=O)[C@@H]1CCC(=O)N1)C(=O)N[C@H](C)C(=O)N[C@H](Cc1ccccc1)C(=O)O [Example 49, pE-R-a-R-L-a-H-K-G-P-nle-a-f-OH] ([pGlu]R[dA]RL[dA]HKGP[dNle][dA][dF]-OH)', '> 16.7 h'),
  ('CCCC[C@@H](NC(=O)[C@@H]1CCCN1C(=O)CNC(=O)[C@H](CCCCN)NC(=O)[C@H](Cc1ccccc1)NC(=O)[C@@H](C)NC(=O)[C@H](CC(C)C)NC(=O)[C@H](CCCNC(=N)N)NC(=O)[C@@H]1CCCN1C(=O)[C@H](CCCNC(=N)N)NC(=O)[C@@H]1CCC(=O)N1)C(=O)N[C@H](C)C(=O)N[C@H](Cc1ccccc1)C(=O)O [Example 17, pE-R-P-R-L-a-F-K-G-P-nle-a-f-OH] ([pGlu]RPRL[dA]FKGP[dNle][dA][dF]-OH)', '> 16.7 h');

###

experimental-target: hAPJ (Homo sapiens, UniProt P35414)
Sequence (P35414 1-380): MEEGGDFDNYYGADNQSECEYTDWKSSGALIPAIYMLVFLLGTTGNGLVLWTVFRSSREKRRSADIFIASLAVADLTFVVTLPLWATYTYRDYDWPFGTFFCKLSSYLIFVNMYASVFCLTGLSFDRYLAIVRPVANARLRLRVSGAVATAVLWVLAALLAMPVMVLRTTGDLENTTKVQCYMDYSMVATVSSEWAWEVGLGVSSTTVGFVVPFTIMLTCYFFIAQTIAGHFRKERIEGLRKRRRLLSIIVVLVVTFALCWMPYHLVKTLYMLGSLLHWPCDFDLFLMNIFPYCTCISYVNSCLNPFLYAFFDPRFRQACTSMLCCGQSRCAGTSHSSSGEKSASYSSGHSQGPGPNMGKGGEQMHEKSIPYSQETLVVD
assay-method-text: hAPJ Calcium Flux Assay
Assay type: cell-based
condition-notes: Chem-5 APJ stable cells, FLIPR calcium flux stimulation; read-out: hAPJ Ca^2+ Flux EC50
Where a SMILES comes first, the peptide text is derived from it. [ ]: non-standard residue; d: D form. pGlu = O=C1CC[C@@H](C(=O)O)N1; dNle = CCCC[C@@H](N)C(=O)O
// boundary case: EC50 equal to 7 nM maps to Not fulfilled; strictly smaller maps to Fulfilled

INSERT INTO results (compound, label) VALUES
  ('CCCC[C@@H](NC(=O)[C@@H]1CCCN1C(=O)CNC(=O)[C@H](CCCCN)NC(=O)[C@H](Cc1c[nH]cn1)NC(=O)[C@@H](C)NC(=O)[C@H](CC(C)C)NC(=O)[C@H](CCCNC(=N)N)NC(=O)[C@@H]1CCCN1C(=O)[C@@H](CCCNC(=N)N)NC(=O)[C@@H]1CCC(=O)N1)C(=O)N[C@H](C)C(=O)N[C@H](Cc1ccccc1)C(=O)O', 'Not fulfilled'),
  ('CCCC[C@@H](NC(=O)[C@@H]1CCCN1C(=O)CNC(=O)[C@H](CCC(N)=O)NC(=O)[C@H](Cc1c[nH]cn1)NC(=O)[C@@H](C)NC(=O)[C@H](CC(C)C)NC(=O)[C@H](CCCNC(=N)N)NC(=O)[C@@H]1CCCN1C(=O)[C@H](CCCNC(=N)N)NC(=O)[C@@H]1CCC(=O)N1)C(=O)N[C@H](C)C(=O)N[C@H](Cc1ccccc1)C(=O)O [Example 59, pE-R-P-R-L-a-H-Q-G-P-nle-a-f-OH] ([pGlu]RPRL[dA]HQGP[dNle][dA][dF]-OH)', 'Not fulfilled'),
  ('CCCC[C@@H](NC(=O)[C@@H]1CCCN1C(=O)CNC(=O)[C@H](CCCCN)NC(=O)[C@H](Cc1c[nH]cn1)NC(=O)[C@@H](C)NC(=O)[C@H](CC(C)C)NC(=O)[C@H](CCCNC(=N)N)NC(=O)[C@@H]1CCCN1C(=O)[C@H](CCCNC(=N)N)NC(=O)[C@@H]1CCC(=O)N1)C(=O)N[C@H](CCC(=O)O)C(=O)N[C@H](Cc1ccccc1)C(=O)O [Example 19, pE-R-P-R-L-a-H-K-G-P-nle-e-f-OH] ([pGlu]RPRL[dA]HKGP[dNle][dE][dF]-OH)', 'Not fulfilled'),
  ('CCCC[C@H](NC(=O)[C@@H]1CCCN1C(=O)CNC(=O)[C@H](CCCCN)NC(=O)[C@H](Cc1c[nH]cn1)NC(=O)[C@@H](C)NC(=O)[C@H](CC(C)C)NC(=O)[C@H](CCCNC(=N)N)NC(=O)[C@@H]1CCCN1C(=O)[C@H](CCCNC(=N)N)NC(=O)[C@@H]1CCC(=O)N1)C(=O)N[C@H](C)C(=O)N[C@H](Cc1ccccc1)C(=O)O', 'Fulfilled'),
  ('CCCC[C@@H](NC(=O)[C@@H]1CCCN1C(=O)CNC(=O)[C@H](CCCCN)NC(=O)[C@H](Cc1c[nH]cn1)NC(=O)[C@@H](C)NC(=O)[C@H](Cc1ccc(O)cc1)NC(=O)[C@H](CCCNC(=N)N)NC(=O)[C@@H]1CCCN1C(=O)[C@H](CCCNC(=N)N)NC(=O)[C@@H]1CCC(=O)N1)C(=O)N[C@H](C)C(=O)N[C@H](Cc1ccccc1)C(=O)O [Example 28, pE-R-P-R-Y-a-H-K-G-P-nle-a-f-OH] ([pGlu]RPRY[dA]HKGP[dNle][dA][dF]-OH)', 'Not fulfilled');
